Where do the numbers come from? From the supplement of paper PMC9170038.

# Tested on: MS2 coat protein
# protocol-text: apparent KD of MS2 coat protein; designed switch direction (-1 OFF switch, 1 ON switch): 1; higher = weaker reporter binding
# test-parameters: input ligand: microRNA oligo, concentration not stated
The entries below are paired with their reported apparent KD of MS2 coat protein.

Request: Item CGUCGUUUGAUAGGAUAUCGCUUUACAUGAGGAUCACCCAUGUUUACCACGCUGGUUUUUCUUUCCGAGAAGGAUUCUGAUGUU [salish99_SSNG02_r04_023] (Eterna round: R96, puzzle: Same State NG 2) has what recorded apparent KD of MS2 coat protein?
Response: 25.2 nM

Request: Item GGAGCCAAGGCAGGAUAUUCAUAUUAACAACAUGAGGAUCACCCAUGUAAGGCCAGAAGGCCUUGGGAGAAGGGCCAUGGCUCG [Xeonanis - 13 mod4] (Eterna round: R96, puzzle: Same State NG 2) has what recorded apparent KD of MS2 coat protein?
Response: 110 nM

Further cases:
Request: Item GCAGGACGGUAAAACAUCUCACAUGAGGAUCACCCAUGUUGUGAGGAUAUGGAUCCUAAUUGGAUCCAGAAGGCACGGUCCUGC [Fiskers NG3ss - 30] (Eterna round: R96, puzzle: Same State NG 3) has what recorded apparent KD of MS2 coat protein?
Response: 17.7 nM

Request: Item GGUCCAUCAUGAGGAUAUGGCACCUUAUUGGUGCCAGAAGGCAUGUAAAUUAUAAUAAACAUGAGGAUCACCCAUGUAUGGACC [Eli NG1ss - 96] (Eterna round: R96, puzzle: Same State NG 1) has what recorded apparent KD of MS2 coat protein?
Response: 55.5 nM
